Listed molecules paired with reported Ki
- target.or.test.system: Hypoxanthine-guanine phosphoribosyltransferase (Homo sapiens, UniProt P00492)
- Sequence (P00492 whole entry): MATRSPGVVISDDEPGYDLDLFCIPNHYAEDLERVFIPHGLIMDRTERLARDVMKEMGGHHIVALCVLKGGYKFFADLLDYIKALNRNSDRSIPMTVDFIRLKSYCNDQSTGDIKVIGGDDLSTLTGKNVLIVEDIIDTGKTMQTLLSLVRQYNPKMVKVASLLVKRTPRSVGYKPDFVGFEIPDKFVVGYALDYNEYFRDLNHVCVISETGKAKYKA
- measurement.notes: Inhibition of human HGPRT using Prib-PP as substrate by spectrophotometric assay in presence of guanine
readout: Ki (nM)

1. COC(=O)CCN(CCn1cnc2c(=O)[nH]c(N)nc21)CCP(=O)(O)O
500
2. N#CCCN(CCn1cnc2c(=O)[nH]cnc21)CCP(=O)(O)O
2400
3. COC(=O)CCCN(CCn1cnc2c(=O)[nH]cnc21)CCP(=O)(O)O
22000
4. O=c1[nH]cnc2c1ncn2CCN(CCP(=O)(O)O)CCP(=O)(O)O
3000
5. Nc1nc2c(ncn2CCN(CCCC(=O)O)CCP(=O)(O)O)c(=O)[nH]1
100
6. Nc1nc2c(ncn2CCN(CCP(=O)(O)O)CCP(=O)(O)O)c(=O)[nH]1
200
7. N#CCCCN(CCn1cnc2c(=O)[nH]c(N)nc21)CCP(=O)(O)O
600
8. N#CCCN(CCn1cnc2c(=O)[nH]c(N)nc21)CCP(=O)(O)O
70
9. COC(=O)CCCN(CCn1cnc2c(=O)[nH]c(N)nc21)CCP(=O)(O)O
100
10. O=C(O)CCCN(CCn1cnc2c(=O)[nH]cnc21)CCP(=O)(O)O
5400
11. O=C(O)CN(CCn1cnc2c(=O)[nH]cnc21)CCP(=O)(O)O
32000
12. Nc1nc2c(ncn2CCN(CCC(=O)O)CCP(=O)(O)O)c(=O)[nH]1
150
13. N#CCN(CCn1cnc2c(=O)[nH]cnc21)CCP(=O)(O)O
35000
14. N#CCCCN(CCn1cnc2c(=O)[nH]cnc21)CCP(=O)(O)O
29000
15. O=c1[nH]cnc2c1ncn2CCN(CCO)CCP(=O)(O)O
5500
16. CCOC(=O)CN(CCn1cnc2c(=O)[nH]cnc21)CCP(=O)(O)O
2600
17. Nc1nc2c(ncn2CCN(CCP(=O)(O)O)CC(=O)O)c(=O)[nH]1
1400
18. Nc1nc2c(ncn2CCN(CCO)CCP(=O)(O)O)c(=O)[nH]1
70
19. CCOC(=O)CN(CCn1cnc2c(=O)[nH]c(N)nc21)CCP(=O)(O)O
100

====

# Ki per entry
- measurement.notes: Inhibition of Plasmodium vivax HGPRT using Prib-PP as substrate by spectrophotometric assay in presence of guanine
readout: Ki (µM)

1) O=C(O)CN(CCn1cnc2c(=O)[nH]cnc21)CCP(=O)(O)O
178
2) Nc1nc2c(ncn2CCN(CCCC(=O)O)CCP(=O)(O)O)c(=O)[nH]1
25
3) O=C(O)CCN(CCn1cnc2c(=O)[nH]cnc21)CCP(=O)(O)O
41
4) N#CCCN(CCn1cnc2c(=O)[nH]c(N)nc21)CCP(=O)(O)O
0.3

====

- measurement.notes: Inhibition of Plasmodium vivax HGPRT using Prib-PP as substrate by spectrophotometric assay in presence of guanine
readout: Ki (µM)

1) O=c1[nH]cnc2c1ncn2CCN(CCP(=O)(O)O)CCP(=O)(O)O
13
2) O=C(O)CCCN(CCn1cnc2c(=O)[nH]cnc21)CCP(=O)(O)O
1.6
3) Nc1nc2c(ncn2CCN(CCO)CCP(=O)(O)O)c(=O)[nH]1
1.4
4) Nc1nc2c(ncn2CCN(CCC(=O)O)CCP(=O)(O)O)c(=O)[nH]1
0.05
5) O=c1[nH]cnc2c1ncn2CCN(CCO)CCP(=O)(O)O
21

Where do these numbers come from? They come from ChEMBL document CHEMBL2150991.
